Give measured normalized growth for each item. Keep answers brief.
Test details: chemical genetic growth profiling, strain panel (AID 1159580);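 further: tested at 20 µM; growth read once vehicle control cultures reached saturation at 30 °C; 1 = growth at the plate median or of vehicle wells; lower values mean less growth of the strain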
Condition parameters: S. cerevisiae deletion strains, growth OD, locus YPR106W, strain ISR1, hits give low values
Hit rate of the full screen: of about 5,500 compounds, about 2,000 (36%) were called active. Inconclusive results (about 18%) are left out. The list shows a part of the results.
One number for each entry.

Consider the worked cases shown below.
>>> recorded_measurement("O=C1/C(=C/c2c[nH]c3ccccc23)CSc2ccccc21")
0.978
>>> recorded_measurement("O=C1OC(c2ccccc2)=C/C1=C/c1ccccc1")
0.981
>>> recorded_measurement("ONC(=Nc1ccccc1Cl)c1ccccc1Cl")
0.99
>>> recorded_measurement("CO/N=C1/CC(C)(C)Cc2c(-c3ccn(C(=O)Nc4cccc(Cl)c4)n3)sc(SC)c21")
0.975
>>> recorded_measurement("O=C1Nc2ccccc2/C1=C\\c1cccc2ccccc12")
0.959

We next turn to a different compound, shown below.
normalized growth lookup needed for CCCCCCCCCCCCSc1ncn[nH]1 , thanks.
0.991

###

Test details: chemical genetic growth profiling, strain panel (AID 1159580)
Condition parameters: S. cerevisiae deletion strains, growth OD, locus YOR316C, strain cot1, hits give low values
The campaign covered roughly 5,500 compounds. About 2,000 (36%) were called active. Another 18% or so got no clear call; they are omitted. Some of the results follow.
Provide the reported normalized growth of each item.

>>> recorded_measurement("CC(=O)Oc1ccccc1C(=O)Oc1ccccc1C(=O)O")
"0.978 (inactive)"
>>> recorded_measurement("CC1(C)S[C@@H]2[C@H](NC(=O)[C@@H](N)c3ccc(O)cc3)C(=O)N2[C@H]1C(=O)O")
"0.999 (inactive)"
>>> recorded_measurement("Oc1ccc2c3c1OC1[C@@H](O)CC[C@@]4(O)[C@@H](C2)N(CC2CCC2)CC[C@]314 (stereo not given in full)")
"1.02 (inactive)"
>>> recorded_measurement("CSCCC(N)C(=O)NC(CC(C)C)C(=O)NC(Cc1ccccc1)C(=O)O (stereo not given)")
"0.998 (inactive)"

Please give the measured normalized growth for this molecule: CC[C@H]1CN2CCC1C[C@@H]2[C@@H](O)c1ccnc2ccc(OC)cc12 (stereo not given in full)
1.01 (inactive)

###

Test details: chemical genetic growth profiling, strain panel (AID 1159580)
Condition parameters: S. cerevisiae deletion strains, growth OD, locus YNR030W, strain Alg12
In all, about 5,500 compounds went through this assay and about 2,000 (36%) were called active. Another 18% or so got no clear call; they are omitted. Cut-off read from the data, not from the text of the source: active = normalized growth mostly below about 0.91 (no sharp cut-off); inconclusive = no clear call, values can overlap the other calls; inactive = mostly above about 0.92. This is one part of the list.
# valid calls are label 1 (active), label 0 (inactive); nothing else

>>> label_value("CCOC(=O)/C(C#N)=C/N=C(N/N=C\\c1c(Cl)cccc1Cl)SC")
"label 1"

Recorded call for O=C(O)C1CC(=O)N(Cc2ccccc2Cl)C1 (stereo not drawn) ?
label 0

What is the recorded call for this molecule in the test? CN1c2ccccc2C(=O)/C(=N/Nc2ccccc2F)S1(=O)=O
label 0

Would you mind telling me which call this test gave CCCCCCCCCCCCSc1nnc(N)s1 ?
label 0

# outcome recorded in this test, key = COc1ccc(OC)c(CNC(=O)Cc2cccs2)c1
label 0

###

Test details: chemical genetic growth profiling, strain panel (AID 1159580)
Condition parameters: S. cerevisiae deletion strains, growth OD, locus YNR049C, strain mso1
Hit rate of the full screen: of about 5,500 compounds, about 2,000 (36%) were called active. About 18% were inconclusive and are not listed. Rule as the data show it: active = normalized growth mostly below about 0.91 (no sharp cut-off); inconclusive = no clear call, values can overlap the other calls; inactive = mostly above about 0.92. Some of the results follow.
The reply should be one of these categories: active, inactive

Example cases with answers are listed next.
>>> label_value("COc1cc(-c2cc(=O)c3c(O)c(OC)c(OC)c(OC)c3o2)cc(OC)c1OC")
"inactive"
>>> label_value("C=CCSSSCC=C")
"inactive"
>>> label_value("C/C=C(\\C)C(=O)O[C@@H]1c2c(ccc3ccc(=O)oc23)OC(C)(C)[C@@H]1OC(C)=O")
"inactive"
>>> label_value("COc1ccc(-c2cc(=O)c3c(OC)c(OC)c(OC)c(OC)c3o2)cc1OC")
"inactive"
>>> label_value("O=c1c(-c2ccc(O)cc2)coc2c(C3O[C@H](CO)[C@@H](O)[C@H](O)[C@H]3O)c(O)ccc12 (stereo not given in full)")
"inactive"
>>> label_value("CC1(C)Oc2ccc3ccc(=O)oc3c2CC1O (stereo not given)")
"inactive"
>>> label_value("CC(=O)N1CCN(c2ccc(OCC3CO[C@](Cn4ccnc4)(c4ccc(Cl)cc4Cl)O3)cc2)CC1 (stereo not given in full)")
"active"
>>> label_value("CCc1ccc2c(O)c3c(cc2c1C(=O)OC)C(=O)c1c(O)ccc(O)c1C3=O")
"inactive"
>>> label_value("Cc1ccccc1N1C(=O)c2cc(S(N)(=O)=O)c(Cl)cc2NC1C (stereo not given)")
"inactive"
>>> label_value("CC1Cc2ccccc2N1NC(=O)c1ccc(Cl)c(S(N)(=O)=O)c1 (stereo not given)")
"inactive"

Write down the call the test reported for this compound. Item: COc1ccc(-c2cc(=O)c3c(O)cc(O)cc3o2)cc1
inactive

Just curious, what result did COc1ccc(-c2cc(=O)c3c(O)c(OC)c(OC)c(OC)c3o2)cc1OC get here?
inactive

###

Would you mind telling me the reported normalized growth of each entry?
Test details: chemical genetic growth profiling, strain panel (AID 1159580);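 further: tested at 20 µM; growth read once vehicle control cultures reached saturation at 30 °C; 1 = growth at the plate median or of vehicle wells; lower values mean less growth of the strain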
Condition parameters: S. cerevisiae deletion strains, growth OD, locus YMR277W, strain FCP1, hits give low values
Out of some 5,500 compounds screened, about 2,000 (36%) were called active. Another 18% or so got no clear call; they are omitted. The list shows a part of the results.

Take each entry in turn and give its normalized growth.
1. O=C(NNc1cc(C(F)(F)F)cc(C(F)(F)F)c1)c1cnc2n(c1=O)CCS2
2. CC1(C)C=Cc2cc(/C(N)=N\OC(=O)Nc3cccc(C(F)(F)F)c3)ccc2O1
3. FC(F)(F)Sc1ccc(OCc2n[nH]c(=S)n2-c2ccccc2)cc1

0.992 (inactive)
0.987 (inactive)
0.992 (inactive)

Count: 3. Required value per item: normalized growth.
1. OC(COCc1ccccc1)Cn1c2ccccc2c2ccccc21 (stereo unspecified)
2. O=S(=O)(c1cc(Cl)ccc1Cl)N1CCc2ccccc2C1
3. N/C(=N/OC(=O)Nc1cccc(C(F)(F)F)c1)c1ccc(OC(F)(F)F)cc1

1: 0.955 (inactive); 2: 0.982 (inactive); 3: 0.97 (inactive)

###

Test details: chemical genetic growth profiling, strain panel (AID 1159580);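 further: tested at 20 µM; growth read once vehicle control cultures reached saturation at 30 °C; 1 = growth at the plate median or of vehicle wells; lower values mean less growth of the strain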
Condition parameters: S. cerevisiae deletion strains, growth OD, locus YOR083W, strain WHI5, hits give low values
Screen size: about 5,500 compounds; about 2,000 (36%) were called active. Roughly 18% stayed inconclusive and do not appear here. Some of the results follow.
Result type: normalized growth
Numbers only.

>>> recorded_measurement("COc1ccccc1N1CCN(CCCNc2cc(=O)n(C)c(=O)n2C)CC1")
0.989

Provide each entry's normalized growth from the list below.
1. O=c1c(-c2ccc(O)cc2)coc2c(C3O[C@H](CO)[C@@H](O)[C@H](O)[C@H]3O)c(O)ccc12 (stereo partly specified)
2. COc1nc(NC(C)C)nc(NC(C)C)n1
3. NCC(O)CC(=O)O (stereo unspecified)
4. CC(C)Nc1nc(Cl)nc(NC(C)C)n1
5. CSc1nc(NC(C)C)nc(NC(C)C)n1

1: 1.06; 2: 1.01; 3: 1.03; 4: 1; 5: 0.969

###

Test details: chemical genetic growth profiling, strain panel (AID 1159580);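 further: tested at 20 µM; growth read once vehicle control cultures reached saturation at 30 °C; 1 = growth at the plate median or of vehicle wells; lower values mean less growth of the strain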
Condition parameters: S. cerevisiae deletion strains, growth OD, locus YOR069W, strain VPS5
About 2,000 (36%) of roughly 5,500 compounds were called active. Not shown: some 18% with an inconclusive outcome. Rule as the data show it: active = normalized growth mostly below about 0.91 (no sharp cut-off); inconclusive = no clear call, values can overlap the other calls; inactive = mostly above about 0.92. This is one part of the list.
The reply should be one of these categories: active, inactive

>>> label_value("CC1(C)Oc2ccc3ccc(=O)oc3c2CC1O (stereo unspecified)")
"inactive"
>>> label_value("CNC[C@H](O)c1cccc(O)c1")
"inactive"
>>> label_value("CC1(C)S[C@@H]2[C@H](NC(=O)C(C(=O)O)c3ccccc3)C(=O)N2[C@H]1C(=O)O (stereo partly specified)")
"inactive"
>>> label_value("C/C=C(/C)C(=O)O[C@@H]1Cc2c(ccc3ccc(=O)oc23)OC1(C)C")
"inactive"

Hi team, can someone confirm the assay call for COc1ccccc1N1CCN(CCCNc2cc(=O)n(C)c(=O)n2C)CC1 ?
inactive

# fetch the recorded call for C[C@@H]1CC[C@@]23CCC4(C)[C@@](C=CC5[C@@]6(C)CCC(=O)C(C)(C)C6CC[C@]54C)(OC2=O)C3[C@H]1C (stereo partly specified) here
inactive

How did this test come out for Nc1ccc(S(=O)(=O)Nc2ncccn2)cc1 ?
inactive

Recorded call for CC1=CC(=O)C(C(C)C)=CC1=O ?
inactive

What is the recorded call for this molecule in the test? O=C(CCCN1CCC2(CC1)C(=O)NCN2c1ccccc1)c1ccc(F)cc1
inactive

Field: outcome | Entry: CC(=O)O[C@@H]1CC2C(C)(CC[C@H](O)C2(C)C)C2CC[C@]3(C)C(=CC(=O)O[C@H]3c3ccoc3)C21C (stereo partly specified)
inactive

Record request — test call for CC(=O)O[C@@H]1c2c(ccc3ccc(=O)oc23)OC(C)(C)[C@@H]1OC(=O)CC(C)C
inactive

Per the records of this test, what outcome belongs to C[C@@H]1CC[C@@]23CCC4(C)[C@@](C=CC5[C@@]6(C)CC[C@H](O)C(C)(C)C6CC[C@]54C)(OC2=O)C3[C@H]1C (stereo partly specified) ?
inactive

Recorded test call requested for Cc1c(C(N)=O)cc([N+](=O)[O-])cc1[N+](=O)[O-]
inactive

Give the logged outcome of this assay for the following molecule: NCCCCN
inactive

Identify the outcome logged in this assay for the molecule shown: CC[C@@]1(O)C(=O)OCc2c1cc1n(c2=O)Cc2cc3cc(O)ccc3nc2-1
inactive

For COc1ccc(-c2cc(=O)c3c(O)c(OC)c(O[C@H]4O[C@H](CO[C@@H]5O[C@@H](C)[C@H](O)[C@@H](O)[C@H]5O)[C@@H](O)[C@H](O)[C@H]4O)cc3o2)cc1 , which call appears in the assay record?
inactive

Recorded test outcome, item COc1ccc(-c2cc(=O)c3c(O)c(OC)c(OC)cc3o2)cc1O
inactive

Look up the recorded call for NC(=O)c1cc([N+](=O)[O-])cc([N+](=O)[O-])c1 in this test.
inactive
